pIC50: recorded values
# System name: Recombinant human HSD17B13 (Homo sapiens (Human), UniProt Q7Z5P4)
# Sequence (Q7Z5P4 20-300): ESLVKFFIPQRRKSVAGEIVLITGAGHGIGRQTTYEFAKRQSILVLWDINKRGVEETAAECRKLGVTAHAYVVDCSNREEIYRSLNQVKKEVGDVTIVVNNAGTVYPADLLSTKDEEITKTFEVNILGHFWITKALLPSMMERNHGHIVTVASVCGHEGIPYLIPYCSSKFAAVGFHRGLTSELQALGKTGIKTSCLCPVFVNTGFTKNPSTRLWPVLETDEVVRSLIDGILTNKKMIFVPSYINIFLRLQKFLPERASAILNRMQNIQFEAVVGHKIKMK
# Assay overview: HSD17B13 rapid-fire mass spectrometry assay (RF/MS assay)
# Condition set: inhibition of HSD17B13; LTB4 10 μM, NAD+ 0.5 mM, RT 3 h; IC50 ranges A-E
pIC50: −log10 of the molar value.

The following molecules have reported results that may help.
COc1ccccc1C#Cc1nc(S(=O)(=O)Nc2ccc(C(=O)O)cc2OC)cs1 ... > 7.00
CCCCOc1c(F)c(-c2nc(S(=O)(=O)Nc3cc(F)c(C(=O)O)cc3OC)cs2)ccc1[C@H]1CC[C@@H](C(C)C)CC1 ... 6.30 to 7.00
COc1cc(C(=O)O)ccc1NS(=O)(=O)c1csc(CCc2ccccc2)n1 ... 4.00 to 6.00
COc1cc(C(=O)O)ccc1NS(=O)(=O)c1csc(-c2ccc(C3CCC(C(C)(C)C)CC3)cc2)n1 (centres unmarked) ... > 7.00
O=S(=O)(Nc1ccc(Br)cc1C(F)F)c1cnc(-c2ccc(F)cc2)s1 ... 4.00 to 6.00
COc1cc(C(=O)O)ccc1NS(=O)(=O)c1csc(-c2cccc3ccccc23)n1 ... 6.00 to 6.30
COc1cc(C(=O)O)c(F)cc1NS(=O)(=O)c1csc(C#Cc2ccc(C)cc2)n1 ... > 7.00
COc1cc(C(=O)O)ccc1NS(=O)(=O)c1csc(-c2cccc(C)c2C)n1 ... 6.30 to 7.00
COc1cc(C(=O)O)ccc1NS(=O)(=O)c1cccc(-c2ccccc2)c1 ... 4.00 to 6.00
CC(C)Oc1cc(C(=O)O)ccc1NS(=O)(=O)c1cnc(-c2ccc(F)cc2)s1 ... 4.00 to 6.00

// switching to the query molecule
# input What does the record list as pIC50 for O=C(O)c1ccc(NS(=O)(=O)c2cnc(-c3ccc(F)cc3)s2)c(C(F)F)c1 ?
# output 4.00 to 6.00

====

# System name: Recombinant human HSD17B13 (Homo sapiens (Human), UniProt Q7Z5P4)
# Assay overview: HSD17B13 rapid-fire mass spectrometry assay (RF/MS assay)
# Condition set: inhibition of HSD17B13; LTB4 10 μM, NAD+ 0.5 mM, RT 3 h; IC50 ranges A-E
Assay readout: IC50

COc1cc(C(=O)O)ccc1NS(=O)(=O)c1csc(N2CCC(c3ccccc3)CC2)n1 ... 1000 to 100000 nM
COc1cc(C(=O)O)ccc1NS(=O)(=O)c1ccc(-c2cccc(-c3ccc(C)cc3)c2)s1 ... 100 to 500 nM
O=C(O)c1ccc(NS(=O)(=O)c2cccc(S(=O)(=O)Nc3ccc(C(=O)O)cc3O)c2)c(O)c1 ... 100 to 500 nM
COc1cc(C(=O)O)c(F)cc1NS(=O)(=O)c1cnn(-c2ccc([C@H]3CC[C@H](C(C)C)CC3)cc2)c1 ... 100 to 500 nM
COc1cccc(C#Cc2nc(S(=O)(=O)Nc3ccc(C(=O)O)cc3OC)cs2)c1 ... < 100 nM

# input Form entry - test system: Recombinant human HSD17B13 (Homo sapiens (Human), UniProt Q7Z5P4); read-out: IC50; compound: COc1cc(C(=O)O)ccc1NS(=O)(=O)c1cccc(-c2ccc([C@H]3CC[C@H](C(F)(F)F)CC3)cc2)c1F
# output < 100 nM

# input Reported IC50 for Recombinant human HSD17B13 (Homo sapiens (Human), UniProt Q7Z5P4), given COc1cc(C(=O)O)ccc1NS(=O)(=O)N1Cc2nc(C3=CCC(C(C)(C)C)CC3)sc2C1 (centres unmarked) ?
# output 100 to 500 nM

# input Enter reported IC50 observed with Recombinant human HSD17B13 (Homo sapiens (Human), UniProt Q7Z5P4) for COc1cc(C(=O)O)c(F)cc1NS(=O)(=O)c1csc(-c2ccc([C@H]3CC[C@@H](C(C)C)CC3)c(OC(C)C)c2F)n1
# output 100 to 500 nM

# input What IC50 appears in the records for this compound with Recombinant human HSD17B13 (Homo sapiens (Human), UniProt Q7Z5P4)? COc1cc(C(=O)O)ccc1NS(=O)(=O)c1csc(N2CCCC(C(C)c3ccccc3)C2)n1 (centres unmarked)
# output 1000 to 100000 nM

# input Value wanted: IC50 (Recombinant human HSD17B13 (Homo sapiens (Human), UniProt Q7Z5P4)) of entry CCCCC[C@H]1CC[C@H](c2ccc(-c3ncc(S(=O)(=O)Nc4cc(F)c(C(=O)O)cc4OC)s3)cc2)CC1
# output 100 to 500 nM
